Give measured GI50 for each item. Keep answers brief.
System: M14
Assay: NCI tumour cell line growth inhibition, 48 h
Calls of active or inactive are those of the source. No stated cut-off is given here; in the data, active = GI50 up to about 1.1 µM and inactive = higher.

Before answering, review these 6 worked examples.
O=C(/C(=C/c1cccs1)c1ccccc1)c1ccccc1 :: > 100 µM (inactive)
COc1ccc(/C=N\O[Si](C)(C)C(C)(C)C)cc1O[Si](C)(C)C(C)(C)C :: 20 µM (inactive)
CN(C)/N=N/c1ccc(C(N)=O)cc1 :: > 100 µM (inactive)
Cc1ccc(Nc2nc(=O)[nH]c(=O)[nH]2)cc1N=[N+]=[N-] :: > 100 µM (inactive)
C/C(=N\O)C1CC(CC(=O)O)C1(C)C (stereo unspecified) :: > 100 µM (inactive)
O=S(=O)(O)c1ccc2cccc(/N=N\c3c(O)ccc4ccccc34)c2c1 :: > 100 µM (inactive)

Go through the list and state GI50 for each entry.
1. CC(C)C1(C)N=C(C(F)(F)F)c2cc(C(=O)C(F)(F)F)c3ccccc3c2N1 (stereo unspecified)
2. O=C1C=CC(=NNc2ccccc2)C=CC1=O
3. Cc1ccc(/N=N/c2ccc(O)c(CN(C)C)c2)cc1
4. NC(=O)c1ccccc1NC(=O)C(=O)C(C(=O)c1ccc2ccccc2c1)C1OC(=O)c2ccccc21 (stereo unspecified)
5. COC1CCN(N(C)C)O1 (stereo unspecified)

Out:
1: 4.99 µM (inactive); 2: 12.9 µM (inactive); 3: 21.9 µM (inactive); 4: 14.3 µM (inactive); 5: > 100 µM (inactive)

====

Test system: MOLT-4
Experiment: NCI tumour cell line growth inhibition, 48 h
Active and inactive are the calls of the source. Cut-off read from the data, not from the text of the source: active = GI50 up to about 1.1 µM and inactive = higher.
Give measured GI50 for each item. Keep answers brief.

Before answering, review these 3 worked examples.
CN(C)/N=N/c1ccc(C(N)=O)cc1 :: > 100 µM (inactive)
COc1ccc(C2=NN(C(=O)c3ccc(Cl)cc3)C(O)(c3cc(F)c(Cl)cc3Cl)C2)cc1OC (stereo not given) :: 4.13 µM (inactive)
COc1ccccc1/C=C/c1cnccn1 :: > 10 µM (inactive)

Go through the list and state GI50 for each entry.
1. O=[N+]([O-])c1ccc2c(c1)OCCOCCOc1ccc([N+](=O)[O-])cc1OCCOCCO2
2. COC(=O)C1Cc2c([nH]c3ccccc23)-c2[nH]c3ccccc3c2CC(NC(C)=O)C(=O)N2CCCC2C(=O)N1 (stereo not given)
3. Cc1cn(Cc2cccc(C3=NCCCN3)c2)c(=O)n(Cc2cccc(C3=NCCCN3)c2)c1=O
4. BrC12c3ccccc3Sc3ccccc3C1(Br)c1ccccc12 (stereo not given)
5. O=C(N/N=C\c1cccc2ccccc12)Nc1ccc([N+](=O)[O-])cc1
6. C=C(C)[C@@H]1CC=C(CO)CC1

Out:
> 100 µM (inactive)
66.7 µM (inactive)
> 100 µM (inactive)
10.7 µM (inactive)
20.8 µM (inactive)
72.3 µM (inactive)

In: Given CC(=O)Oc1ccn2nc(C)c(Br)c2c1Br , state its recorded GI50.
Out: 15.3 µM (inactive)

====

Give measured GI50 for each item. Keep answers brief.
Tested on: OVCAR-4
Assay: NCI tumour cell line growth inhibition, 48 h
Activity calls are given as the source filed them. No stated cut-off is given here; in the data, active = GI50 up to about 1.1 µM and inactive = higher.

Before answering, review these 2 worked examples.
O=C1/C(=C/c2ccc([N+](=O)[O-])cc2)C(=O)N(c2ccccc2)C1c1ccccc1 (stereo not given) :: > 10 µM (inactive)
O=C(c1ccccc1)c1ccc2[nH]c(-c3c(Cl)c(Cl)c(Cl)c(Cl)c3C(=O)N/N=C/c3cccc(Oc4ccccc4)c3)nc2c1 :: 99.3 µM (inactive)

Go through the list and state GI50 for each entry.
1. CCc1ccc(Nc2cc(=O)[nH]c(=S)n2C)cc1
2. O=c1[nH]c(-c2ccccc2)nc2cc([N+](=O)[O-])c(/C(Cl)=C/c3ccccc3)cc12
3. O=C1C2C=CC1C1C(=O)OC(=O)C21 (stereo not given)
4. C=C1c2[nH]c3ccccc3c2CC(C(=O)O)N1C(O)c1ccc(S(=O)(=O)O)cc1 (stereo not given)
5. Cc1ccc(/N=N/c2ccc(O)c(CN(C)C)c2)cc1
6. Sc1nnc(COc2ccc(Cl)cc2)[nH]1
7. COC(=O)C(=O)C(CC(=O)Nc1ccc(C)cc1)C(=O)OC (stereo not given)

Out:
1. > 100 µM (inactive)
2. 18.3 µM (inactive)
3. > 100 µM (inactive)
4. > 100 µM (inactive)
5. 22.6 µM (inactive)
6. > 100 µM (inactive)
7. > 100 µM (inactive)

In: Given O=C(O)c1cc(O)c2c(c1)Cc1cccc(O)c1C2=O , state its recorded GI50.
Out: 38 µM (inactive)

====

Test system: NCI-H460
Assay: NCI tumour cell line growth inhibition, 48 h
Activity calls are given as the source filed them. Rule as the data show it: active = GI50 up to about 1.1 µM and inactive = higher.
TEST READOUT: GI50

Before answering, review these 4 worked examples.
CC1(C)[C@@H]2C[C@H]1C(Cc1ccccc1C[C@H]1c3cc(-c4ccccn4)ncc3[C@H]3C[C@@H]1C3(C)C)c1cc(-c3ccccn3)ncc12 (stereo not given in full) :: 0.337 µM (active)
COc1ccc2c3c(n(Cc4ccccc4)c(=O)c2c1)-c1cc(OC)c(OC)cc1C3C (stereo not given) :: 4.71 µM (inactive)
CC(C)(C)OC(=O)NC(CCC(=O)OCc1ccccc1)C(=O)NCCCO (stereo not given) :: > 100 µM (inactive)
Cc1ccc(/N=N/c2ccc(O)c(CN(C)C)c2)cc1 :: 16.5 µM (inactive)

In: Given COc1ccc(/C=C2/C[N+](C)(C)C/C(=C/c3ccc(OC)cc3)C2=O)cc1 , state its recorded GI50.
Out: 38.2 µM (inactive)

====

Tested on: HCC 2998
Assay: NCI tumour cell line growth inhibition, 48 h
Active and inactive are the calls of the source. No stated cut-off is given here; in the data, active = GI50 up to about 1.1 µM and inactive = higher.
TEST READOUT: GI50

Before answering, review these 4 worked examples.
BrC12c3ccccc3Sc3ccccc3C1(Br)c1ccccc12 (configuration not stated) :: 28.8 µM (inactive)
O=c1c2ccccc2n2c(S)nnc2n1-c1ccccc1 :: > 100 µM (inactive)
CC(C)C1COC(c2cccc(C3=N[C@@H](C(C)C)CO3)n2)=N1 (some centres not stated) :: > 100 µM (inactive)
COC1=CC(=C(C#N)/C(=N\c2ccccc2)SC)C=C(OC)C1=O :: 94.8 µM (inactive)

Go through the list and state GI50 for each entry.
1. Cc1cc2c(cc1C)[n+]([O-])c(C(=O)/C=C/c1ccc(Cl)cc1)c(C)[n+]2[O-]
2. CNC(=O)N1CN(c2ccccc2)C2(CCN(CCCC(=O)c3ccc(F)cc3)CC2)C1=O
3. CN1C2CCC1CC(C)(O)C2 (configuration not stated)
4. C[S+]([O-])c1ccc(COP(N)(=O)N(CCCl)CCCl)cc1 (configuration not stated)
5. CN1CCC(CN2c3ccccc3Sc3ccccc32)CC1

Out:
1: 23.5 µM (inactive); 2: 7.82 µM (inactive); 3: > 100 µM (inactive); 4: > 100 µM (inactive); 5: 12.9 µM (inactive)

Go through the list and state GI50 for each entry.
1. CC(CCC(=O)O)C(=O)O (configuration not stated)
2. CS/C(C)=N/OC(=O)NCCCCNc1ccc(N=[N+]=[N-])cc1
3. COc1cc(C(=O)O)cc2c1[nH]c1ccccc12

Out:
> 100 µM (inactive)
23.9 µM (inactive)
> 25 µM (inactive)

====

Test system: CAKI-1
Assay: NCI tumour cell line growth inhibition, 48 h
Activity calls are given as the source filed them. No stated cut-off is given here; in the data, active = GI50 up to about 1.1 µM and inactive = higher.
Give measured GI50 for each item. Keep answers brief.

Before answering, review these 3 worked examples.
Cc1cc2ccccc2n2c1nc1ccc(O)cc12 :: > 10 µM (inactive)
CC1(C)OC[C@@H](/C=C\CCO[Si](c2ccccc2)(c2ccccc2)C(C)(C)C)N1C(=O)c1ccccc1 :: 9.4 µM (inactive)
CCN1C(=O)C(=Cc2ccc(-c3ccccc3)cc2)C(=O)N(CC)C1=S :: > 100 µM (inactive)

Go through the list and state GI50 for each entry.
1. COc1cccc2c1C(=O)C1(O)CCCCC21 (stereo unspecified)
2. C1CSCCCSCCCSCCCSCCCSC1
3. O=c1[nH]c(-c2ccccc2)nc2cc([N+](=O)[O-])c(/C(Cl)=C/c3ccccc3)cc12
4. CCOC(=O)C1(C/C=C/CCl)CCCC1=O (stereo unspecified)

Out:
> 100 µM (inactive)
17.7 µM (inactive)
15.1 µM (inactive)
29.6 µM (inactive)

Go through the list and state GI50 for each entry.
1. c1ccc2c(CNCCCCCCNCc3cccc4ccccc34)cccc2c1
2. O=c1[nH]nc2ccccc2c1Cl
3. COc1ccc(/C=C2/C[N+](C)(C)C/C(=C/c3ccc(OC)cc3)C2=O)cc1
4. COc1c2c(c(OC)c3c1c(=O)c1ccccc1n3C)OCO2

Out:
7.38 µM (inactive)
3.18 µM (inactive)
> 100 µM (inactive)
37.4 µM (inactive)

====

Give measured GI50 for each item. Keep answers brief.
Test system: CAKI-1
Assay: NCI tumour cell line growth inhibition, 48 h
The source made the active and inactive calls. Cut-off read from the data, not from the text of the source: active = GI50 up to about 1.1 µM and inactive = higher.

Before answering, review these 5 worked examples.
Nc1cc2[nH]c(=O)c3cc(Cl)ccc3c2cc1Cl :: 8.38 µM (inactive)
C1COC2SC3=C(SC(=C4SC5=C(SCCS5)S4)S3)SC2O1 (stereo unspecified) :: > 100 µM (inactive)
Clc1ccc(C2=NOC3C4CCC(C4)C23)cc1 (stereo unspecified) :: > 100 µM (inactive)
Nc1nc(N)c2ncn(-c3ccc(Cl)cc3)c2n1 :: 20.4 µM (inactive)
CC(C)=CCC[C@@H](C)/C=C/C=C(\C)C(=O)CC[C@@H]1CC[N@+]2(C)CCCC[C@H]12 :: > 100 µM (inactive)

Go through the list and state GI50 for each entry.
1. c1csc(C[N+]23CN4CN(CN(C4)C2)C3)c1
2. COc1cc2nc3c(=C(C#N)C#N)c4ccccc4n3c(=O)c2cc1OC
3. Nc1ccc2c(c1)Oc1c(F)c(F)cc3c(=O)c(C(=O)O)cn-2c13
4. Cn1c2c(c3ccccc31)CCN(CCCN1CCN(c3cccc(Cl)c3)CC1)C2=O
5. CS/C(C)=N/OC(=O)NCCCCNc1ccc(N=[N+]=[N-])cc1
6. CCN(CC)CCOc1ccc(N2Cc3cc(OC)c(OC)cc3C2=O)cc1
7. CN(C)c1ccc(/C=C2\N=C(c3ccccc3)N(c3ccc4c(c3)Sc3cc(N5C(=O)/C(=C/c6ccc(N(C)C)cc6)N=C5c5ccccc5)ccc3N4)C2=O)cc1

Out:
25.8 µM (inactive)
> 100 µM (inactive)
32.1 µM (inactive)
20.8 µM (inactive)
36.5 µM (inactive)
> 100 µM (inactive)
17.9 µM (inactive)

Go through the list and state GI50 for each entry.
1. CN1N=C(c2ccccc2)C(C(c2ccccc2[N+](=O)[O-])C2C(=O)N(C)N=C2c2ccccc2)C1=O (stereo unspecified)
2. COC1C2C[C@@H](O)CCC2C(C(=O)OCCl)C[C@H]1O (stereo partly specified)
3. NS(=O)(=O)c1ccc(/N=N/c2ccc(O)c(O)c2)cc1
4. COc1ccc(/C=C2\CCC(C)(CN(C)C)C2=O)cc1Br (stereo unspecified)

Out:
1: > 100 µM (inactive); 2: > 100 µM (inactive); 3: 36.2 µM (inactive); 4: 32.7 µM (inactive)

Go through the list and state GI50 for each entry.
1. COC(=O)c1ccccc1NC(=S)NN(C)C
2. CCc1nc2ccc(NCCN(C)C)c3c(=O)c4ccccc4n1c23

Out:
["> 100 µM (inactive)", "1.56 µM (inactive)"]

Go through the list and state GI50 for each entry.
1. Cc1c(Cl)ccc2c1NC(=O)C2(O)C1Cc2ccccc2C1=O (stereo unspecified)
2. Cc1c(Cl)cccc1NC(=O)C(=O)C1C(=O)NC(=O)NC1=O
3. CC(Cc1ccc(O)c(O)c1)C(C)Cc1ccc(O)c(O)c1 (stereo unspecified) [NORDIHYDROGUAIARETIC ACID]

Out:
1. > 100 µM (inactive)
2. > 100 µM (inactive)
3. 11.4 µM (inactive)
